Below is a list of entries, each paired with its recorded Kd value.
target: SARS-CoV-2 spike (S) protein (SARS-CoV-2), P0DTC2; details: remark: other sources report otherwise
Field format: number, assumed nM, no unit text.

| BINDER | Kd (nM) |
| --- | --- |
| antibody 269 (antibody, V domains shown) VH: QLQLQESGPGLVKPSETLSLTCTVSGGSISSSSYYWGWIRQPPGKGLEWIGNIYYSGSTYYNPSLKSRVTISVDTSKNQFSLKLSSVTAADTAVYYCAGEELDIVATIYSSRYYYYGMDVWGQGTTVTVSS VL: QSALTQPASVSGSPGQSITISCTGTSSDVGGYNYVSWYQQHPGKAPKLMIYEVSNRPSGVSNRFSGSKSGNTASLTISGLQAEDEADYYCSSYTSTSTLVFGGGTKLTVL | 7.29 |
| antibody 304 (antibody, V domains shown) VH: EVQLLESGGGLVQPGGSLRLSCAASGFTFSTYAMSWVRQAPGKGLEWVSAISGSGGSTYYADSVKGRFTISRDNSKNTLYLQMNSLRAEDTAVYYCASGYSPDYWGQGTLVTVSS VL: AIQMTQSPSSLSASVGDRVTITCRASQGIRNDLGWYQQKPGKAPKLLIYAASSLQSGVPSRFSGSGSGTDFTLTISSLQPEDFATYYCLQDYNYPRTFGQGTKVEIK | 3.14 |
| antibody 322 (antibody, V domains shown) VH: EVQLVESGGGLVQPGGSLRLSCAASGFTFSSYWMSWVRQAPGKGLEWVANIKQDGSEKYYVDSVKGRFTISRDNAKNSLYLQMNSLRAEDTAVYYCARDEDVAAALDYWGQGTLVTVSS VL: SYVLTQPPSVSVAPGKTARITCGGNNIGSKSVHWYQQKPGQAPVLVIYYDSDRPSGIPERFSGSNSGNTATLTISRVEAGDEADYYCQVWDSSSDHPERVFGGGTKLTVL | 21.1 |
| antibody 382 (antibody, V domains shown) VH: QVQLVESGGGVVQPGRSLRLSCAASGFTFSNYGMHWVRQAPGKGLEWMTVISFDGRNKYYADSVKGRFTISRDNSKNTLFLQMNSLTTEDTALYFCASGRRPRYSSGWSFDYWGQGTLVTVSS VL: DIQMTQSPSSLSASVGDRVTITCQASQDIGNYLNWYQQKLGKAPNLLIYDASNLETGVPSRFSGSGSGTDFTFTINSLQPEDTATYYCQQYDDPSITFGQGTRLEIK | 11.2 |

Entry antibody 325 (antibody, V domains shown) VH: QVQLQESGPGLVKPSQTLSLTCTVSGGSISGGGYYWSWIRQHPGKGLEWIGYIYYSGSTYYNPSLQSRVTISVDTSKNQFSLKLSSVTAADTAVYYCARVGTSSVWYFDYWGQGTLVTVSS VL: QSALTQPRSVSGSPGQSVTISCTGTSSDVGGYNYVSWYQQHPGKAPKLMIYDVTKRPSGVPDRFSGSKSGNTASLTISGLQAEDEADYYCSSYAGSWVFGGGTKLTVL — recorded Kd = 7.36

Reported Kd of antibody 279 (antibody, V domains shown) VH: EVQLLESGGGLVQPGGSLRLSCAASGFTFSSYAMSWVRQAPGKGLEWVSTISGSGGNTYYADSVKGRFTISRDNSKNTLYLQMNSLRAEDTAVYYCAKDLFQGLYYGSGEFDYWGQGTLVTVSS VL: QSALTQPASVSGSPGQSITISCTGTSSDVGAYNYVSWYQQHPGKAPKLMIYGVSNRPSGVSNRFSGSKSGNTASLTISGLQAEDEADYYCSSYTSSSTRVFGTGTKVTVL : 52.3

The binder antibody 383 (antibody, V domains shown) VH: EVQLVESGGGLVQPGGSLRLSCAASGFTFSSYDMHWVRQATGKGLEWVSTIGTAGDTYYPGSVKGRFTISRENAKNSLYLQMNSLRAGDTAVYYCARVAYSSSFVYWYFDLWGRGTLVTVSS VL: DIQMTQSPSSLSASIGDRVTITCRASQSISSYLNWYQQKPGKAPNLLIYAASSLQSGVPSRFSGSGSGTDFTLTISSLQPEDFATYYCQQSYTTPLYTFGQGTKLEIK showed Kd equal to 0.772
